- target or test system: human ether-à-go-go-related gene (hERG) potassium channel (human, UniProt Q12809);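 note: peak tail current of the secondary pulse compared with the same well before compound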
- Sequence (Q12809 whole entry, looked up): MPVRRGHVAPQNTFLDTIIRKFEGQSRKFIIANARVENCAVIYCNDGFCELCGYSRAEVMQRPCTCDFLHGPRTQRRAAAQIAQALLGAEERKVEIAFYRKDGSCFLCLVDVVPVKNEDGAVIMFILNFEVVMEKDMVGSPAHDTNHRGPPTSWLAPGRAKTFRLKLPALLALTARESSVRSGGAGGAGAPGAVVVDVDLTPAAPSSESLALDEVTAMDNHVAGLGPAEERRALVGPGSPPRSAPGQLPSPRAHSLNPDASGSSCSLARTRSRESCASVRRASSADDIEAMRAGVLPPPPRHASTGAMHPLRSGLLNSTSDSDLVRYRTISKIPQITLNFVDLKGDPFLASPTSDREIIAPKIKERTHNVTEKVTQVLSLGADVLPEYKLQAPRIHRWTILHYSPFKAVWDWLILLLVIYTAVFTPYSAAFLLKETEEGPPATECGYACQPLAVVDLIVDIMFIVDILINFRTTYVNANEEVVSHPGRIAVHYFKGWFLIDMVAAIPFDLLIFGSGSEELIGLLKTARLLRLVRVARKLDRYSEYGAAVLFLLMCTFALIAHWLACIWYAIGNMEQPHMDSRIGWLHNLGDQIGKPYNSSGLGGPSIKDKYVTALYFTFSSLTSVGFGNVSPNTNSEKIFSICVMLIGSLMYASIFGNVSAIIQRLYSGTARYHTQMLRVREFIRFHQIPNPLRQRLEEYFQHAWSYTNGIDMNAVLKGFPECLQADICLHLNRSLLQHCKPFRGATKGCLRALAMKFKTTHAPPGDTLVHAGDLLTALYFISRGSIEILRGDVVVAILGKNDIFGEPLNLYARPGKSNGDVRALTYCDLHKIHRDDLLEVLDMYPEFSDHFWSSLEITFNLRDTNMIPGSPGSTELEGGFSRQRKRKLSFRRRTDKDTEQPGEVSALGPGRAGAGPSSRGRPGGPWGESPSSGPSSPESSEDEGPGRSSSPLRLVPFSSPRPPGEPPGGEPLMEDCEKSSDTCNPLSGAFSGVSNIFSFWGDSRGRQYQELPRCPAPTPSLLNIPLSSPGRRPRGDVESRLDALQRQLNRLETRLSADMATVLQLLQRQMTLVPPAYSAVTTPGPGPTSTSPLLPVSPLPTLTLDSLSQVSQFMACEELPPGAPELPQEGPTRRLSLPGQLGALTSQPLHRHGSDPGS
- assay details: primary screen, population patch clamp on CHO cells stably expressing hERG; higher = less effect of the substance
Hit rate of the full screen: of about 310,000 compounds, about 14,000 (4.5%) showed an effect of 50% or more. The effect is printed as a negative number. For the sample, strong results were picked, then their nearest neighbours and some compounds at random.
endpoint label: hERG current change (%, negative = inhibition) at 10uM (%)
Response body: numeric value in %, unit text excluded.

molecule="N=c1c2c(ncn1Cc1ccco1)Oc1cc(O)ccc1C2c1ccccc1 (stereo not shown)" value_measured=-74.1
molecule=NC(=O)C1(S(=O)(=O)c2ccccc2)CCCCC1 value_measured=13.2
molecule="OCC1(Cc2ccccc2F)CCCN(CC2CCCCC2)C1 (stereo not shown)" value_measured=-37.7

Shift focus to the following entry.
Exercise: Given OCC1(Cc2ccc(F)cc2F)CCCN(CCCc2ccccc2)C1 (stereo not shown) , respond with its hERG current change (%, negative = inhibition) at 10uM.
Key: -82.9

---

- target or test system: human ether-à-go-go-related gene (hERG) potassium channel (human, UniProt Q12809);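 note: peak tail current of the secondary pulse compared with the same well before compound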
- assay details: primary screen, population patch clamp on CHO cells stably expressing hERG; higher = less effect of the substance
- Description: Briefly, Chinese hamster ovary (CHO) cells stably expressing the hERG channel were dislodged from tissue culture flasks and dispensed into PPC plates. […] During the recording, background leak currents were estimated by a 100 ms step to -80 mV from an initial holding potential of -70 mV and subtracted from the subsequent current measurement. The campaign was conducted in two phases using slight differences in recording protocol. […]
The whole screen tested about 310,000 compounds, of which about 14,000 (4.5%) showed an effect of 50% or more. The effect is printed as a negative number. What follows is part of a selection rich in strong results, with near analogues and random picks from the rest.
hERG current change (%, negative = inhibition) at 10uM values, listed per item

compound=CC(C)(C)c1cc(Cl)ccc1OCCOCCN1CCCC1.O=C(O)C(=O)O value_measured=-45.8%
compound=Cc1nc2ccc(Cl)cc2c(=O)n1-c1cccc(Cl)c1 value_measured=3.78%
compound="CC1CCCN(CCOCCOc2ccc(Cl)cc2Br)C1.O=C(O)C(=O)O (centres unmarked)" value_measured=-61.1%
compound="CCC(NC(=O)c1ccccc1NC(=O)c1ccco1)C(=O)NC1CCCCC1 (centres unmarked)" value_measured=-22.5%
compound=C#CCOC(=O)c1ccccc1C(=O)O value_measured=7.07%

Exercise: Given CC(C)[C@@H](COc1ccccc1)N1CCN(Cc2ccccc2)CCC1=O , respond with its hERG current change (%, negative = inhibition) at 10uM.
Key: -29.6%

Exercise: Given Cc1cccc(CCNC(=O)C2CCCN(c3ncnc4c3nc3n4CCCCC3)C2)c1 (centres unmarked) , respond with its hERG current change (%, negative = inhibition) at 10uM.
Key: -59.8%

Exercise: Given Cc1ccc(CN2CCc3c(OCC(=O)Nc4cc(C)ccc4C)cccc3C2=O)cc1 , respond with its hERG current change (%, negative = inhibition) at 10uM.
Key: 4.23%

Exercise: Given N#CC[C@H](c1ccccc1)N1CCN(Cc2ccccc2)CCC1=O , respond with its hERG current change (%, negative = inhibition) at 10uM.
Key: -1.88%

Exercise: Given CCC1Sc2ccccc2N(CC(=O)NC2CC2)C1=O (centres unmarked) , respond with its hERG current change (%, negative = inhibition) at 10uM.
Key: 7.59%

Exercise: Given CC1CCCN(CCCOc2ccc(Cl)cc2Br)C1.O=C(O)C(=O)O (centres unmarked) , respond with its hERG current change (%, negative = inhibition) at 10uM.
Key: -70.5%

Exercise: Given Cc1ccc2cc3c(nc2c1)N(c1ccccc1)CC3 , respond with its hERG current change (%, negative = inhibition) at 10uM.
Key: 2.24%

Exercise: Given Cc1ccc2nc(C)c3c(c2c1)SCC3 , respond with its hERG current change (%, negative = inhibition) at 10uM.
Key: -27.4%

Exercise: Given CSc1nc(C)c2c(n1)N(c1ccc(F)cc1)CC2 , respond with its hERG current change (%, negative = inhibition) at 10uM.
Key: 19.8%

Exercise: Given CCOC(=O)c1cc(CC)sc1/N=C/C1C(=O)CCCC1=O , respond with its hERG current change (%, negative = inhibition) at 10uM.
Key: 10.9%

Exercise: Given COc1ccc(CNS(=O)(=O)c2ccc(S(=O)(=O)NC3CC3)cc2)cc1 , respond with its hERG current change (%, negative = inhibition) at 10uM.
Key: 17.9%

Exercise: Given O=C1c2cccc(OCC(=O)N3CCCc4ccccc43)c2CCN1Cc1ccc(Br)cc1 , respond with its hERG current change (%, negative = inhibition) at 10uM.
Key: 6.7%

Exercise: Given Cc1cc(C(F)(F)F)nn1C(=O)c1cccnc1Cl , respond with its hERG current change (%, negative = inhibition) at 10uM.
Key: -5.15%

Exercise: Given O=C(Nc1cccc(S(=O)(=O)N2CCCCCC2)c1)C1CCC1 , respond with its hERG current change (%, negative = inhibition) at 10uM.
Key: -57.4%

Exercise: Given CN(C)S(=O)(=O)c1cccc(NC(=O)COC(=O)C2CCN(C(=O)c3ccc(F)cc3)CC2)c1 , respond with its hERG current change (%, negative = inhibition) at 10uM.
Key: -50.8%

Exercise: Given Cc1ccc(C)c(NC(=O)COc2cccc3c2CCN(Cc2ccccc2)C3=O)c1 , respond with its hERG current change (%, negative = inhibition) at 10uM.
Key: -10.1%

Exercise: Given CCn1nc(NS(=O)(=O)c2ccccc2)c2cc3cc(C)ccc3nc21 , respond with its hERG current change (%, negative = inhibition) at 10uM.
Key: 3.38%

Exercise: Given CC1CCCN(CCSc2ccc(Cl)cc2)C1.O=C(O)C(=O)O (centres unmarked) , respond with its hERG current change (%, negative = inhibition) at 10uM.
Key: -41.3%

Exercise: Given Cc1ccc2nc(C)c3c(c2c1)N(c1ccc(F)cc1)CC3 , respond with its hERG current change (%, negative = inhibition) at 10uM.
Key: -92.2%

Exercise: Given O=C1CCN(Cc2ccccc2)CCN1[C@H](COc1ccccc1)c1ccccc1 , respond with its hERG current change (%, negative = inhibition) at 10uM.
Key: -57.9%

Exercise: Given CC1CCCN(CCCNC(=O)C2CCCN(c3ncnc4c3nc3n4CCCCC3)C2)C1 (centres unmarked) , respond with its hERG current change (%, negative = inhibition) at 10uM.
Key: -4.72%

Ref: paper PMC4336329
